System: SF-295
assayMethodText: NCI tumour cell line growth inhibition, 48 h
The source made the active and inactive calls. No stated cut-off is given here; in the data, active = GI50 up to about 1.1 µM and inactive = higher.
Form field: GI50 (one value per entry).

compound	GI50
COC1/C=C\C=C(/C)C(=O)NC2=CC(=O)C=C(C2=O)C(OC)C(C)CC(OC)C(OC)C(C)/C=C(/C)C1OC(N)=O (stereo not given)	20.6 µM (inactive)
C/C(=N/CC(=O)O)c1ccccc1	> 100 µM (inactive)
COc1ccc(C(=O)OCC2OC(n3cnc4c(=S)nc[nH]c43)C(OC(=O)c3ccc(OC)cc3)C2OC(=O)c2ccc(OC)cc2)cc1 (stereo not given)	33.1 µM (inactive)
CC(C)(C)c1ccc(OCCOc2ccc(C(C)(C)C)cc2NC=O)c(NC=O)c1	5.5 µM (inactive)
COc1ccc(CCn2cnc3ccccc32)cc1	> 100 µM (inactive)
